Every entry's value here was drawn from patent US12084467B2.

test: Solubility in simulated intestinal fluids (FaSSIF / FeSSIF)
setup_conditions: fed state simulated intestinal fluid (FeSSIF), 25 °C, fessif, thermodynamic from solid
attribute_measured: solubility (µg/mL)

[A] CC(C)(C#Cc1ccc(-c2ccc(Cl)c3c(N(C(=O)N4CCC[C@H]4CN(CCC(=O)O)C(=O)OCOP(=O)(O)O)S(C)(=O)=O)nn(CC(F)(F)F)c23)c([C@H](Cc2cc(F)cc(F)c2)NC(=O)Cn2nc(C(F)(F)F)c3c2C(F)(F)[C@@H]2C[C@H]32)n1)S(C)(=O)=O
[B] CC(C)(C#Cc1ccc(-c2ccc(Cl)c3c(N(C(=O)N4CC(C(=O)O)C4)S(C)(=O)=O)nn(CC(F)(F)F)c23)c([C@H](Cc2cc(F)cc(F)c2)NC(=O)Cn2nc(C(F)(F)F)c3c2C(F)(F)[C@@H]2C[C@H]32)n1)S(C)(=O)=O
[ask] Hi! Which is lower in terms of solubility, the first one A or the second one B ? Answer format: the label of the selected item.
[reply] B
